Subject of test: Potassium channel subfamily K member 9 (Homo sapiens) (UniProt Q9NPC2)
Sequence (Q9NPC2 whole entry, looked up): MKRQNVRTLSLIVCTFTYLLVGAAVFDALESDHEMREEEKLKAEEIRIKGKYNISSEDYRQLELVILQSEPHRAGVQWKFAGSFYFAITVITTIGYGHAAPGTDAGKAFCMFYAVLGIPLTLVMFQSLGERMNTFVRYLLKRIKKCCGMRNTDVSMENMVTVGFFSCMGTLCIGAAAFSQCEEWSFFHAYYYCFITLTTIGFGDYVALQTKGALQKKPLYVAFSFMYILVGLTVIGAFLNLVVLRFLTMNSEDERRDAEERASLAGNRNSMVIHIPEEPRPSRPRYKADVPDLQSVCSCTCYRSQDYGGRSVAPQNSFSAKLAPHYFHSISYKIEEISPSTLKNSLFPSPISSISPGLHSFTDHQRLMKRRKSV
Assay notes: KCNK9 potassium channel inhibitors, confirmation, HEK293 cells, thallium flux, duplicate (AID 492992)
Condition notes: FluxOR thallium flux fluorescence, at 10 µM
Screen size: about 4,900 compounds; about 2,100 (43%) were called active.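 How the source made its calls: active means thallium signal inhibited by more than 5 SD of the compound-free buffer control wells, on both duplicate plates; inactive means the rest.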 So high a share suggests a set chosen from earlier hits. Only a sample is shown.
// one of YES (active), NO (inactive), no free text

Example entries begin here.
COc1cccc(CN(C)C(=O)CC23CC4CC(CC(C4)C2)C3)c1OC = NO
CCN(C(=O)COc1ccc(C(=O)c2ccccc2)cc1)c1ccccc1 = YES
Cc1cc(Oc2ccc(Cl)cc2)nc(SCC(=O)c2ccccc2)n1 = YES
CCOC(=O)c1c(NC(=O)CSc2cn(CC)c3ccccc23)sc2c1CCC2 = NO
Cc1ccc(C2=NN(C)c3nc4ccccc4n3C2)cc1 = NO
CCCCOC(=O)CCCc1ccc([N+](=O)[O-])cc1[N+](=O)[O-] = NO
Cc1ccc(C(=O)c2c(NC(=O)c3ccncc3)sc3c2CCCC3)cc1 = NO
COc1cccc2sc(NNC(=O)c3nc4ccccc4s3)nc12 = NO
CC(C)(C)NC(=O)NC(=O)CN1CCC(Cc2ccccc2)CC1 = NO
O=C(Nc1ccc(S(=O)(=O)N2CCCCC2)cc1)C1CCN(C(=O)c2ccc(F)cc2)CC1 = NO

Problem: Identify the outcome logged in this assay for the compound shown: COc1ccc(C(=O)C2CCCN(Cc3ccc4nonc4c3)C2)c(C)c1 (centres undefined)
Solution: NO

Problem: Please indicate how the test categorized `COc1cccc(OC)c1C(=O)Nc1sc2c(c1C(N)=O)CCCC2` .
Solution: YES

Problem: In this assay, the call recorded for `CCc1ccccc1NC(=O)/C(=C/c1ccccc1)c1ccccc1` was what?
Solution: YES

Problem: # outcome recorded in this test, key = `O=C(CSCc1ccc(Br)cc1)Nc1ccc(S(=O)(=O)N2CCCCCC2)cc1`
Solution: NO

Problem: Please state the recorded outcome for this compound: COc1ccc(C(=O)NN2C(=O)C3C(c4ccccc4)C=CC(c4ccccc4)C3C2=O)cc1 (centres undefined)
Solution: NO

Problem: Kindly provide the recorded test outcome for the following compound: `CCOc1ccc(C(C)C)cc1S(=O)(=O)n1nc(C)cc1C`
Solution: YES
